Values were extracted from paper doi:10.1101/2023.04.24.538046v2.

For TcMIP (Trypanosoma cruzi), measured Kd is reported for the entries below.
// units = nM; emit number, no label

INSERT INTO results (compound, system_name, readout_label, unit_of_measure, value_reported) VALUES
  ('O=C1[C@@H]2CCC[C@H]([C@@H](CO)CN1Cc1ccccn1)N2S(=O)(=O)c1cc(Cl)cc(Cl)c1 [JK095]', 'TcMIP (Trypanosoma cruzi)', 'Kd', 'nM', 599);

Now look at this one.
Input line: Report value: Kd, system: TcMIP (Trypanosoma cruzi), compound: C[C@@H](c1ccccn1)N1C[C@H](CO)[C@H]2CCC[C@@H](C1=O)N2S(=O)(=O)c1cc(Cl)cc(Cl)c1 [JK236]
Sequence (Q09734 30-196 limits assumed): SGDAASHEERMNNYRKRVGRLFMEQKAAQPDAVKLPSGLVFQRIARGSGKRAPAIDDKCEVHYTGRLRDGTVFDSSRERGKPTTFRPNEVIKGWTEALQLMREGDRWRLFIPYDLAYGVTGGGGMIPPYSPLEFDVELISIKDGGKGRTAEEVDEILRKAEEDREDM
Output line: 45.5
